target: human mu opioid receptor (Homo sapiens, UniProt P35372); construct: host or cells: CHO-K1; assay: Human mu GTP-Eu nucleotide exchange assay (agonist mediated activation); type: biochemical; conditions: bound GTP-Eu relative to DAMGO (IA=100), CHO-K1 membranes expressing human mu opioid receptor; read-out: intrinsic activity (IA)
Sequence (P35372 whole entry): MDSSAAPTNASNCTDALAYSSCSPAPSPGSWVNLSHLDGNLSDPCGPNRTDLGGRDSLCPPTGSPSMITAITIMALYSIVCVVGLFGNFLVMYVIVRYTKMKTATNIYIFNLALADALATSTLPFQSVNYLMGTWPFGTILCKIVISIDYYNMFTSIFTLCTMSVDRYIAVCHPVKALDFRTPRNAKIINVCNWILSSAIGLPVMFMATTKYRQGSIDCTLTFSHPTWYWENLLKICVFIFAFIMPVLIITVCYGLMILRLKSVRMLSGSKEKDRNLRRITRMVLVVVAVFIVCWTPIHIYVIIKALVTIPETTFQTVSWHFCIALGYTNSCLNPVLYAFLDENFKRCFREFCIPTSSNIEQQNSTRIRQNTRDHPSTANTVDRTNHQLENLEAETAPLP
Parameter measured: Emax (%)
Answers are plain numbers, in %.

# Compound, Parameter measured, Output unit, Value reported
measured = [
    ("CC(C)C[C@H](NC(=O)C(Cc1ccccc1)CN1[C@@H]2CC[C@H]1C[C@@H](c1cccc(C(N)=O)c1)C2)C(N)=O (mixture of isomers)", "Emax", "%", -7),
    ("O=C(NCC1CCCCC1)NC(CC1CCCCC1)CN1[C@@H]2CC[C@H]1C[C@@H](c1cccc(O)c1)C2 (some centres unmarked)", "Emax", "%", -3),
]

Could you tell me Emax for each of these compounds? They are listed below.
1. O=C(CO)NC(CC1CCCCC1)CN1[C@@H]2CC[C@H]1C[C@@H](c1cccc(O)c1)C2 (some centres unmarked)
2. Cc1ccc(S(=O)(=O)NC(CC2CCCCC2)CN2[C@@H]3CC[C@H]2C[C@@H](c2cccc(O)c2)C3)cc1 (some centres unmarked)
3. NC(=O)CCC(=O)NC(CC1CCCCC1)CN1[C@@H]2CC[C@H]1C[C@@H](c1cccc(O)c1)C2 (some centres unmarked)
4. O=C(NC(CC1CCCCC1)CN1[C@@H]2CC[C@H]1C[C@@H](c1cccc(O)c1)C2)C1CCCCC1 (some centres unmarked)

### Response
1: 24; 2: 2; 3: 3; 4: -9

---

target: human mu opioid receptor (Homo sapiens); construct: host or cells: CHO-K1; test: Radioligand binding assay, human mu opioid receptor; settings: [3H]-Diprenorphine displacement, membranes of CHO-K1 cells; read-out: pKi at the human mu opioid receptor (converted)
For each record, write down the corresponding Ki.
# answer = value followed by unit

# Compound, Assay target, Parameter measured, Value reported
records = [
    ("O=C(NC(CC1CCCCC1)CN1[C@@H]2CC[C@H]1C[C@@H](c1cccc(O)c1)C2)C1CCCCC1 (stereo partly drawn)", "human mu opioid receptor (Homo sapiens)", "Ki", "0.0631 nM"),
    ("CC(C)C[C@H](NC(=O)C(Cc1ccccc1)CN1[C@@H]2CC[C@H]1C[C@@H](c1cccc(C(N)=O)c1)C2)C(N)=O (mixture of isomers)", "human mu opioid receptor (Homo sapiens)", "Ki", "0.0631 nM"),
    ("O=C(CO)NC(CC1CCCCC1)CN1[C@@H]2CC[C@H]1C[C@@H](c1cccc(O)c1)C2 (stereo partly drawn)", "human mu opioid receptor (Homo sapiens)", "Ki", "0.0631 nM"),
    ("O=C(NCC1CCCCC1)NC(CC1CCCCC1)CN1[C@@H]2CC[C@H]1C[C@@H](c1cccc(O)c1)C2 (stereo partly drawn)", "human mu opioid receptor (Homo sapiens)", "Ki", "0.1 nM"),
]

Could you tell me Ki for each of these compounds? They are listed below.
1. Cc1ccc(S(=O)(=O)NC(CC2CCCCC2)CN2[C@@H]3CC[C@H]2C[C@@H](c2cccc(O)c2)C3)cc1 (stereo partly drawn)
2. NC(=O)CCC(=O)NC(CC1CCCCC1)CN1[C@@H]2CC[C@H]1C[C@@H](c1cccc(O)c1)C2 (stereo partly drawn)

### Response
0.794 nM
0.126 nM
